Listed here: items and their measured T/C.
Test system: L1210 leukemia ip in BDF1 mice, survival T/C
TEST_SUMMARY: NCI In Vivo Anticancer Drug Screen. Data for tumor model L1210 Leukemia (intraperitoneal) in B6D2F1 (BDF1) mice
TEST_CONDITIONS: endpoint: mean survival time; dose: 400.0 mg/kg/injection; schedule: Q04DX002 (ip); vehicle: Klucel (hydroxypropylcellulose) (HPC); higher = longer survival
Toxic doses and inconclusive results are not listed.
MEASURE: T/C

O=C(NNc1ccccc1)C(O)C(O)C(O)C(O)C(O)CO (stereo not drawn) = 91 % of control
Cc1cccc(C)c1NC(=O)Nc1ncccn1 = 93 % of control
COc1ccc(NC(=O)Nc2cc([N+](=O)[O-])ccc2C)c(OC)c1 = 92 % of control
Nc1ccc(C(=O)NCC(=O)O)cc1 = 100 % of control
COP(=O)(OC)Oc1c(Cl)c(OP(=O)(OC)OC)c(Cl)c(OP(=O)(OC)OC)c1Cl = 86 % of control
CCN(C(=O)c1cccc(C(=O)N(CC)c2cccc(C)c2)c1)c1cccc(C)c1 = 91 % of control
O=C1C=C(c2ccccc2)C(=O)C2(c3ccccc3)C=CCC(c3ccccc3)C12 (stereo not drawn) = 95 % of control
O=C(O)Cc1ccc(Cl)c2ccccc12 = 107 % of control
O=C1c2cccc3c([N+](=O)[O-])ccc(c23)C(=O)N1Cc1ccco1 = 102 % of control
Cc1ccc(C(=O)N/N=C/c2ccc3ccccc3c2)cc1 = 95 % of control
N#Cc1nc2c(n(O)c1=N)CCC/C2=C\c1ccc(Cl)c(Cl)c1 = 92 % of control
Cc1no[n+]([O-])c1C(N)=O = 98 % of control
O=C(O)c1cccc2c1C(=O)c1c(Cl)cccc1C2=O = 99 % of control

---

Tested on: L1210 leukemia ip in BDF1 mice, survival T/C
TEST_SUMMARY: NCI In Vivo Anticancer Drug Screen. Data for tumor model L1210 Leukemia (intraperitoneal) in B6D2F1 (BDF1) mice
TEST_CONDITIONS: endpoint: mean survival time; dose: 50.0 mg/kg/injection; schedule: Q04DX003 (ip); vehicle: saline; higher = longer survival
Inconclusive results and toxic doses are left out.
MEASURE: T/C

CCN(CC)CCCC(C)Nc1c2ccc(Cl)cc2nc2cc(Cl)ccc12 (centres undefined) = 98 % of control
CC(C)NNC(=O)c1ccncc1 = 102 % of control
NNCCc1ccccc1 = 106 % of control
CSc1nc2ncnn2c(=O)[nH]1 = 96 % of control
C=CCN(C(=O)OCC)P(=O)(OCC)OCC = 105 % of control
CN(NCc1ccccc1)C(=N)N = 109 % of control
COc1ccc(C(=O)C(C)(CN(C)C)c2ccccc2)cc1 (centres undefined) = 94 % of control
CN(C)C1CC1c1ccccc1 (centres undefined) = 100 % of control
C[N+](C)(C)c1ncncn1 = 104 % of control

---

System: L1210 leukemia ip in BDF1 mice, survival T/C
TEST_SUMMARY: NCI In Vivo Anticancer Drug Screen. Data for tumor model L1210 Leukemia (intraperitoneal) in B6D2F1 (BDF1) mice
TEST_CONDITIONS: endpoint: mean survival time; dose: 400.0 mg/kg/injection; schedule: Q01DX001 (ip); vehicle: saline; higher = longer survival
Inconclusive results and toxic doses are left out.
Listed here: items and their measured T/C.
MEASURE: T/C

CS(=O)(=O)OCCF = 87 % of control
N#CC12CCCCC(=O)N1C=Cc1ccccc12 (stereo not drawn) = 93 % of control
CCOC(C)=N = 115 % of control
CC1(NCc2ccc(Cl)cc2)COP(=O)(NCc2ccccc2)OC1 (stereo not drawn) = 98 % of control
O=C(O)/C=C\C(=O)Nc1nc(NC(=O)/C=C/C(=O)O)cc(=O)[nH]1 = 103 % of control
O=C(O)C1(O)CCCCC1 = 110 % of control
Nc1nc(N)c(N=Nc2ccc(S(=O)(=O)c3ccc(N=Nc4c(N)nc(N)[nH]c4=O)cc3)cc2)c(=O)[nH]1 = 91 % of control
Oc1cccc(NC(=S)Nc2ccccc2)c1 = 97 % of control
c1ccc(-c2cc(-c3ccccc3)c(-c3ccccc3)c(-c3ccccc3)c2)cc1 = 100 % of control
CCCCCC1OC1C/C=C\CCCCCCCC(=O)OCC(O)COC(=O)CCCCCCC/C=C\CC1OC1CCCCC (stereo not drawn) = 95 % of control
C=C/C=C1\CCOC1=O = 110 % of control
CCCCCCc1ccc2c(c1)CC(CCCC)C2 (stereo not drawn) = 101 % of control
Nc1ccc(Cl)nc1 = 96 % of control
C=COC(=O)NCC(=O)O = 92 % of control
C=CCNC(=O)SCCC(=O)O = 102 % of control
c1ccc(C(=NC(c2ccccc2)c2ccccc2)c2ccccc2)cc1 = 98 % of control
Nc1nc(N)c(N=Nc2ccc(S(=O)(=O)Nc3ccccn3)cc2)c(=O)[nH]1 = 94 % of control
O=C1CCc2cc(Br)ccc2O1 = 100 % of control
CC(C)(CO)C(=O)O = 106 % of control
O=C(O)c1cccc(S(=O)(=O)O)c1 = 102 % of control
CC(=O)OC1C(C(N)=O)CC(C(=O)O)C1OC(C)=O (stereo not drawn) = 106 % of control
CCCC(=O)CC(=O)CC(C)C = 94 % of control
Nc1nc(=S)c2ncn(C3OC(COC(=O)c4ccccc4)C(OC(=O)c4ccccc4)C3OC(=O)c3ccccc3)c2[nH]1 (stereo not drawn) = 86 % of control
NC(=O)c1cc(O)c(O)c(O)c1 = 102 % of control
Brc1nc(-c2ccccc2)c(-c2ccccc2)nc1Br = 88 % of control
COc1ccc(N=CC2CCCCC2=O)c([N+](=O)[O-])c1 (stereo not drawn) = 93 % of control
Cc1ccccc1C=O = 94 % of control
CC(=O)NS(=O)(=O)c1cc(N)ccc1S(=O)(=O)c1ccc(N)cc1 = 92 % of control
NC(CCCO)Cc1cc2ccccc2c2ccccc12 (stereo not drawn) = 109 % of control
S=C(Sc1ccc(Cl)cc1)Sc1ccc(Cl)cc1 = 90 % of control
CS(=O)(=O)OCCN(CCO)c1cn(C(c2ccccc2)(c2ccccc2)c2ccccc2)c(=O)n(C(c2ccccc2)(c2ccccc2)c2ccccc2)c1=O = 103 % of control
[O-]/[N+](=C\c1cccc(O)c1)c1ccccc1 = 100 % of control
C[N+](C)(CCNCc1ccccc1)Cc1ccccc1 = 100 % of control
Cc1ccc(NC(=O)N(O)C2CCCCC2C#N)cc1 (stereo not drawn) = 91 % of control
CCOC(OCC)c1ccccc1 = 113 % of control
COC1(OC)C2(Cl)CC(=O)C3CC(=O)C3C1(Cl)C(Cl)=C2Cl (stereo not drawn) = 101 % of control
Oc1cccc(N=Cc2ccccc2O)c1 = 105 % of control
Cc1ccc(NC(=O)C(F)(F)C(F)(F)C(F)(F)F)cc1 = 105 % of control

---

Tested on: L1210 leukemia ip in BDF1 mice, survival T/C
TEST_SUMMARY: NCI In Vivo Anticancer Drug Screen. Data for tumor model L1210 Leukemia (intraperitoneal) in B6D2F1 (BDF1) mice
TEST_CONDITIONS: endpoint: mean survival time; dose: 100.0 mg/kg/injection; schedule: Q01DX001 (ip); vehicle: carboxymethylcellulose (CMC); higher = longer survival
Protocol: The antitumor activity of compounds was measured in mice bearing transplantable tumors. Survival or tumor size were measured and the results are expressed as the measurement made in the treated group (T) divided by the measurement made in the vehicle treated control group (C). The tumor model used in this assay is L1210 Leukemia (intraperitoneal) in B6D2F1 (BDF1) mice
Inconclusive results and toxic doses are left out.
Listed here: items and their measured T/C.
MEASURE: T/C

O=S1(=O)CC(Cl)C1 = 89 % of control
O=C1NC(=O)C(Cc2ccccc2)(Cc2ccccc2)C(=O)N1 = 103 % of control
CC(Cl)CN(Cc1cc(CN(CC(C)Cl)CC(C)Cl)c(O)cc1O)CC(C)Cl (stereo not given) = 110 % of control
CS(=O)(=O)Oc1ccc(Cl)c2ccccc12 = 98 % of control
O=C(O)c1ccccc1C(NC(=O)N1C(=O)C=CC1=O)NC(=O)N1C(=O)C=CC1=O = 97 % of control
CCOC=Nc1ccc(-n2cnc3c(Cl)ncnc32)cc1C = 91 % of control
Cc1ccc(S(=O)(=O)N2c3ccccc3-c3ccccc3C(=O)C2Br)cc1 (stereo not given) = 105 % of control
CCSCCC1(CCC(C)C)C(=O)NC(=Nc2ccccc2)NC1=O (stereo not given) = 90 % of control
Nn1nnc(-c2ccccc2)c1-c1ccccc1 = 100 % of control
O=[N+]([O-])c1ccc(O)c(C=Nc2cnc3ccccc3c2)c1 = 88 % of control
